Here, each record is paired with measured viability at 1 µM data.
Assay: in vitro
Conditions: keratinocyte culture
Field: numeric (%). Do not append units.

compound | measValue
CC1CCCCCC/C=C\CCCCCCCC(=O)O[C@H]2[C@H](O)[C@@H](O)[C@H](O[C@H]3[C@H](O1)O[C@H](CO)[C@@H](O)[C@@H]3O)O[C@@H]2CO (some centres unmarked) [Sophorolipid in Lactone Form] | 98.8

Please give the measured viability at 1 µM for this compound: CC(CCCCCC/C=C\CCCCCCCC(=O)O)O[C@@H]1O[C@H](CO)[C@@H](O)[C@H](O)[C@H]1O[C@@H]1O[C@H](CO)[C@@H](O)[C@H](O)[C@H]1O (some centres unmarked) [Sophorolipid in Acid Form]
99.6

All figures here come from patent US5981497A.
